molecular target: EHMT2 (Homo sapiens, UniProt Q96KQ7); construct: host or cells: MDA-MB-231; assay: MDA-MB-231 H3K9me2 in-cell Western assay (EHMT2 ICW); type: cell-based; details: Table VI; read-out: EHMT2 ICW IC50
pIC50: −log10 of the molar value.
assay_readout: pIC50

CNc1cc(C2CCN(CCOC)CC2)c2cc(OC)c(OCCCN3CCCC3)cc2n1 [Compound 839]    > 7.00
COc1cnc(Nc2cccc3[nH]nnc23)cc1OCCCN1CCCC1 [Compound 619]    < 5.00
CNc1cc(C)nc(Nc2cc(OCCCN3CCCC3)c3nncn3c2)n1 [Compound 622]    < 5.00

Please report the recorded pIC50 for CNc1cc(C)nc(Nc2cnc(OC)c(OC[C@@H](O)CN3CCCC3)c2)n1 [Compound 881] .
6.00 to 7.00

Look up pIC50 for this molecule: COc1cc2c(C3CCOCC3)cc(N(C)C)nc2cc1OCCCN1CCCC1 [Compound 825]
5.00 to 6.00

----------
The following compounds are shown together with reported IC50 values.
Target: EHMT2 (Homo sapiens)
Construct: host or cells: MDA-MB-231
Sequence (Q96KQ7 1-1210): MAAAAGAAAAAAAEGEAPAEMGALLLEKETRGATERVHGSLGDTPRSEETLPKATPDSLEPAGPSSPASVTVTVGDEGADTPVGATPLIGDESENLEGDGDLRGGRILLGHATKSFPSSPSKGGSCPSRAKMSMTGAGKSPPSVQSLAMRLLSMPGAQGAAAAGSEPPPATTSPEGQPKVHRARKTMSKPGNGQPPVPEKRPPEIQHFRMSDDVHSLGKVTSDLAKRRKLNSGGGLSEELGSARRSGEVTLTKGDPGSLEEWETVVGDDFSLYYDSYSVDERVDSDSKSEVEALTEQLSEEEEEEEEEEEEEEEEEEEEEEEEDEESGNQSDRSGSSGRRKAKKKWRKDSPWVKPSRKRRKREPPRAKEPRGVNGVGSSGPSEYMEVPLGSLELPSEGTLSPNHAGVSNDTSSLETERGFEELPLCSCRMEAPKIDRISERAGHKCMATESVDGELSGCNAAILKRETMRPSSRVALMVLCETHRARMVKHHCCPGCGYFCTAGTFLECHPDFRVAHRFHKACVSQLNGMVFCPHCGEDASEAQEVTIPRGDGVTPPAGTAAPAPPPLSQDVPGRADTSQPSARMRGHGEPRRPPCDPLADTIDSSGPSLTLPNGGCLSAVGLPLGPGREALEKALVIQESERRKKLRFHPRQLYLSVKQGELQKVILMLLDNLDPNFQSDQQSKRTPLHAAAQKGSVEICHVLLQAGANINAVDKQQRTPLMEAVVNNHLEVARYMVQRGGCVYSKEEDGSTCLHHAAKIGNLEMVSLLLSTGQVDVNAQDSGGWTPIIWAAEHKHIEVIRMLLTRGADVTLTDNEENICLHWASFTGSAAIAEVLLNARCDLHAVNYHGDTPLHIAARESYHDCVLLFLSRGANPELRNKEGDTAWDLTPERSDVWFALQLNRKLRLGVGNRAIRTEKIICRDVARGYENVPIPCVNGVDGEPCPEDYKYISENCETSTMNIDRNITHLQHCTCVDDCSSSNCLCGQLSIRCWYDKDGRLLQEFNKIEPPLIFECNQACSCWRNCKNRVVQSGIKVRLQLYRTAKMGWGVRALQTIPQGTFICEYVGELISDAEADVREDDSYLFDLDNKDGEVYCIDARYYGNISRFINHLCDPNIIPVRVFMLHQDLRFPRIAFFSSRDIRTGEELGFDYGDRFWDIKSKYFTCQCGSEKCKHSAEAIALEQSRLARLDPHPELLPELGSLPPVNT
Assay: MDA-MB-231 H3K9me2 in-cell Western assay (EHMT2 ICW)
Assay type: cell-based
Details: H3K9me2 in-cell Western, MDA-MB-231 cells; read-out: EHMT2 ICW (IC50 μM)

Example entries and their recorded answers appear below.
CNc1cc(C)nc(Nc2ccc(OC)c(OC[C@@H]3CCN(C4CC4)C3)c2)n1 (single isomer, unassigned)    < 0.1 µM
COc1ccc(Nc2nc(C)cc3[nH]ccc23)cc1OCCCN1CCCC1    > 10 µM

# context switch: different compound, same IC50
Look up IC50: `COc1cnc(Nc2cccc3nccn23)cc1OCCCN1CCCC1`
1 to 10 µM

Data origin: patent US20210198277A1
